# Assay info: chemical genetic growth profiling, strain panel (AID 1159580);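 note: tested at 20 µM; growth read once vehicle control cultures reached saturation at 30 °C; 1 = growth at the plate median or of vehicle wells; lower values mean less growth of the strain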
# Study conditions: S. cerevisiae deletion strains, growth OD, locus YNL322C, strain KRE1 (second series), stronger effect = lower value
The whole screen tested about 5,500 compounds, of which about 2,000 (36%) were called active. Not shown: some 18% with an inconclusive outcome. The list shows a part of the results.

| Compound | normalized growth |
| --- | --- |
| CC(=O)OC1CCC23C(=O)OC45CCC(C6=CC(=O)OC6)C4(C)CCC2C5CCC3(O)C1 (centres undefined) | 0.987 (inactive) |
| CCCC(=O)Nc1ncnc2c1ncn2C1O[C@@H]2COP(=O)(O)O[C@H]2[C@H]1OC(=O)CCC (some centres undefined) | 0.975 (inactive) |
| Cc1c(N(C)CS(=O)(=O)O)c(=O)n(-c2ccccc2)n1C | 1.01 (inactive) |
| C[C@]12CCC3C(CC[C@H]4C[C@@H](O)CC[C@]34C)C1CCC2=O (some centres undefined) | 1.03 (inactive) |
| c1coc(CNc2ncnc3nc[nH]c23)c1 | 0.992 (inactive) |
| NCCS | 0.979 (inactive) |
| CC(=O)Oc1ccc2c(c1)CCC1C2CCC2(C)C1CC(OC(C)=O)C2OC(C)=O (centres undefined) | 0.966 (inactive) |
| COc1ccc2ccc(=O)oc2c1CC=C(C)C | 0.807 (active) |
| CC(=O)OC1CCC2C3CCc4cc(O)ccc4C3CCC12C (centres undefined) | 0.973 (inactive) |
| c1ccc2c(c1)[nH]c1cnccc12 | 1 (inactive) |
| O=c1[nH]c2ccccc2n1CCCN1CCC(n2c(=O)[nH]c3cc(Cl)ccc32)CC1 | 0.975 (inactive) |
| O=C1c2ccc(O)c(O)c2C(=O)c2c(O)ccc(O)c21 | 0.812 (active) |
| CCOC(=O)C1=C(C)NC(C)=C(C(=O)OC)C1c1cccc([N+](=O)[O-])c1 (centres undefined) | 1.01 (inactive) |
| COc1cc(O)c(C(=O)O)c(O)c1 | 0.972 (inactive) |
| N#C/C(=C\c1ccc(O)cc1)C(=O)O | 0.996 (inactive) |
| O=c1[nH]cnc2nc[nH]c12 | 1.02 (inactive) |
| Cc1cc(C)nc(NS(=O)(=O)c2ccc(N)cc2)n1 | 0.971 (inactive) |
| C[C@]12C=CC(=O)C=C1CCC1C2C(=O)C[C@@]2(C)C1CC[C@]2(O)C(=O)CO (some centres undefined) | 0.998 (inactive) |
| CC(C)=CCC/C(C)=C/COc1ccc2ccc(=O)oc2c1 | 0.994 (inactive) |
| O=c1[nH]c2ccccc2n1C1CCN(CCCC(c2ccc(F)cc2)c2ccc(F)cc2)CC1 | 1.03 (inactive) |
| C[N+]1(C)C2CC[C@H]1CC(OC(=O)C(O)c1ccccc1)C2 (some centres undefined) | 0.991 (inactive) |
| COc1cc2c(cc1-c1coc3c4c(c(OC)cc3c1=O)OC(C)(C)C=C4)OCO2 | 1.04 (inactive) |
| CC(=O)O[C@H]1CC2CCC3C(CC[C@@]4(C)C3C[C@H]([N+]3(C)CCCCC3)[C@@H]4OC(C)=O)[C@@]2(C)C[C@@H]1[N+]1(C)CCCCC1 (some centres undefined) | 1.02 (inactive) |
| CNC(=O)CSP(=S)(OC)OC | 1 (inactive) |
| CC1(C)C[C@@H]2C(=O)CC[C@H]3O[C@]3(C)CC[C@H]21 | 1 (inactive) |
| O=C1c2ccccc2C(=O)c2c(O)c(O)cc(O)c21 | 0.424 (active) |
| O=C(/C=C/C(=O)Oc1ccccc1C(=O)O)Oc1ccccc1C(=O)O | 0.93 (inactive) |
| Cn1nnnc1SCC1=C(C(=O)O)N2C(=O)C(NC(=O)C(OC=O)c3ccccc3)C2SC1 (centres undefined) | 1 (inactive) |
| C[C@]12CCC3c4ccc(O)cc4CCC3C1CC[C@@H]2OC(=O)CCC1CCCC1 (some centres undefined) | 1.04 (inactive) |
| COP(=S)(OC)SCn1nnc2ccccc2c1=O | 1 (inactive) |
| Cc1ncc([N+](=O)[O-])n1CCO | 0.974 (inactive) |
| CCC(=O)O[C@H]1CCC2C3CCc4cc(O)ccc4C3CC[C@@]21C (some centres undefined) | 0.977 (inactive) |
| C=C1CC2C(CCC3(C)C(=O)CCC23)C2(C)C=CC(=O)C=C12 (centres undefined) | 0.934 (inactive) |
| COc1c2c(cc3occ(-c4ccc5c(c4)OCO5)c(=O)c13)OC(C)(C)C=C2 | 1.02 (inactive) |
| COc1ccc2[nH]cc(CCNC(C)=O)c2c1 | 0.968 (inactive) |
| O=C1c2ccccc2C(=O)c2c1ccc(O)c2O | 0.726 (active) |
| CC(=O)O[C@@H]1CC2C(C)(C)[C@H](O)C[C@H](O)[C@]2(C)C2CC[C@@]3(C)C(=CC(=O)O[C@H]3c3ccoc3)[C@@]21C (some centres undefined) | 1.01 (inactive) |
| CC(C)=CCOc1cc2oc(=O)ccc2cc1O | 0.928 (inactive) |
| COc1cc2ccc(=O)oc2c(OC)c1OC | 0.971 (inactive) |
| CCCCCN=C(N)N/N=C\c1c[nH]c2ccc(OC)cc12 | 1.02 (inactive) |
| CCOc1nc2cccc(C(=O)OC(C)OC(=O)OC3CCCCC3)c2n1Cc1ccc(-c2ccccc2-c2nn[nH]n2)cc1 (centres undefined) | 1.03 (inactive) |
| O=c1ccc2cc(O[C@@H]3O[C@H](CO)[C@@H](O)[C@H](O)[C@H]3O)c(O)cc2o1 | 0.947 (inactive) |
| CCCCC(=O)O[C@H]1CCC2C3CCc4cc(O)ccc4C3CC[C@@]21C (some centres undefined) | 1.01 (inactive) |
| CC(C)=CCOc1c2occc2cc2ccc(=O)oc12 | 0.904 (active) |
